Reference source: the kinase profiling compilation of Christmann-Franck et al. (2016)

# TARGET SYSTEM: HIPK1 (human)
# MEASUREMENT PROTOCOL: KINOMEscan competition binding
# EXPERIMENTAL SETUP: compound 10.0 µM
Listing of recorded kinase still bound, per cent of control by entry.
Report as a plain number; the unit % is understood.

{"SMILES REPRESENTATION": "COc1cc(N2CCN(C)CC2)ccc1Nc1ncc2c(n1)Nc1ccccc1NC2=O", "MEASURE NAME": "kinase still bound, per cent of control", "UNITS LABEL": "%", "REPORTED RESULT": 45}
{"SMILES REPRESENTATION": "N=C1NC(=O)/C(=C/c2ccc(-c3ccccc3O)o2)S1", "MEASURE NAME": "kinase still bound, per cent of control", "UNITS LABEL": "%", "REPORTED RESULT": 1.4}
{"SMILES REPRESENTATION": "Cc1cn(-c2cc(NC(=O)c3cccc4cc(-c5ccc(/C=C6\\SC(=N)NC6=O)o5)ccc34)cc(C(F)(F)F)c2)cn1", "MEASURE NAME": "kinase still bound, per cent of control", "UNITS LABEL": "%", "REPORTED RESULT": 0.15}
{"SMILES REPRESENTATION": "N=C1NC(=O)/C(=C/c2c[nH]c(=O)c(-c3ccc(N4CCNCC4)nc3)c2)S1", "MEASURE NAME": "kinase still bound, per cent of control", "UNITS LABEL": "%", "REPORTED RESULT": 0.15}
{"SMILES REPRESENTATION": "CC(=O)Nc1ccc(-c2ccc(/C=C3\\SC(=N)NC3=O)o2)c(O)c1", "MEASURE NAME": "kinase still bound, per cent of control", "UNITS LABEL": "%", "REPORTED RESULT": 2.6}
{"SMILES REPRESENTATION": "COc1cc(C(N)=O)ccc1-c1ccc(/C=C2\\SC(=N)NC2=O)o1", "MEASURE NAME": "kinase still bound, per cent of control", "UNITS LABEL": "%", "REPORTED RESULT": 5.2}
{"SMILES REPRESENTATION": "COc1cc(N2CCC(O)CC2)ccc1Nc1ncc2c(n1)N1CCc3cccc(c31)C(=O)N2C", "MEASURE NAME": "kinase still bound, per cent of control", "UNITS LABEL": "%", "REPORTED RESULT": 73}
{"SMILES REPRESENTATION": "COc1cc(N2CCN(C)CC2)ccc1Nc1ncc2c(n1)N(C)c1sccc1C(=O)N2C", "MEASURE NAME": "kinase still bound, per cent of control", "UNITS LABEL": "%", "REPORTED RESULT": 67}

Please find the next compound below.
[Q] Fill in: kinase still bound, per cent of control of "CS(=O)(=O)Nc1ccc(-c2cc(/C=C3\SC(=N)NC3=O)c[nH]c2=O)cc1" is ___
[A] 0.5
